test system: tau46 (fibrils) (Homo sapiens, UniProt P10636)
Construct: made in house; host or cells: E. coli
Sequence (P10636 1-412 isoform P10636-7): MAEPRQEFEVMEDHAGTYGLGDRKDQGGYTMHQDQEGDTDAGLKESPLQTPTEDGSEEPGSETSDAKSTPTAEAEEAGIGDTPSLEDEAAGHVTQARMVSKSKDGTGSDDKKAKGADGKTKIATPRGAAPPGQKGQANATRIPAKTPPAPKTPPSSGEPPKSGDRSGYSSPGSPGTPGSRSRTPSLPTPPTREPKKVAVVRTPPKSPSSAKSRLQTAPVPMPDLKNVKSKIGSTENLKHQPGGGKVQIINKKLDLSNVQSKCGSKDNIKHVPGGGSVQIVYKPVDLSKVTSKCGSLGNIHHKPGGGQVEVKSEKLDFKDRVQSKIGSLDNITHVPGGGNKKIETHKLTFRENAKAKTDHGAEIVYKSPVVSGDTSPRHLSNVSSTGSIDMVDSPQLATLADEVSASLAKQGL
protocol details: Competition binding assay, protocol 3a, reference ligand [3H]-compound 1, tau46 fibrils
condition: Experiment B, reference ligand [3H]-compound 1 (1 nM)
observable: Ki (nM)

Input line: What value of Ki has been reported for the following compound? Brc1cc(-c2cc(-c3ccc4c(c3)OCO4)n[nH]2)ccn1 [Compound 9]
Output line: 28

1 = CN(C)c1ccc(-c2cc(-c3ccnc(Br)c3)[nH]n2)cn1 [Compound 4]
2 = Brc1cc(-c2cc(-c3ccc(N4CCC4)cc3)n[nH]2)ccn1 [Compound 17]
3 = CNc1ccc(-c2cc(-c3ccnc(Br)c3)[nH]n2)cc1 [Compound 2]
4 = CN(C)c1ccc(-c2cc(-c3ccnc(F)c3)[nH]n2)cc1 [Compound 3]
Input line: Reorder: Ki, max to min. Put the labels in the requested order and list them out.
Output line: 1, 3, 4, 2
